The measured values listed here are drawn from patent US20260109721A1.

Test system: HepG2 cell line
procedure-text: In vitro toxicity study on HepG2 cell line (resazurin, viability and IC50)
Type: cell-based, human
test-context: HepG2 cells, 50 μM lipid, 48 h post-treatment, resazurin, relative to ethanol vehicle controls
Would you mind telling me the reported Viability (%) at different lipid concentrations, mean of each entry?
Give the figure together with its unit, number first.

response.value for CCCCCCCC/C=C\CCCCCCCC(OCCC(C)CCCC(C)CCCC(C)CCCC(C)C)O[Si](C)(C)OCCCCCCN(CCO)CCO (stereo not drawn) (field: Viability (%) at different lipid concentrations, mean) = 104.5%

Value of measured Viability (%) at different lipid concentrations, mean for the entry CCCCCCCC/C=C\CCCCCCCCOC(=O)C(C)(C)CC(OCCCCCCCC/C=C\CCCCCCCC)O[Si](C)(C)OCCCCCCN1CCOCC1 (stereo not drawn) : 102.1%

// Viability (%) at different lipid concentrations, mean value for CCCCC/C=C\C/C=C\CCCCCCCCOC(CCCCCCC/C=C\C/C=C\CCCCC)O[Si](C)(C)OCCCCCCN(CCO)CCN(CCO)CCCCCCO[Si](C)(C)OC(CCCCCCC/C=C\C/C=C\CCCCC)OCCCCCCCC/C=C\C/C=C\CCCCC (stereo not drawn) : 107.61%

Given item CCCCCCCC/C=C\CCCCCCCCOC(=O)C(C)(C)CC(OCCCCCCCC/C=C\CCCCCCCC)O[Si](C)(C)OCCCCCCN(CCO)CCN(CCO)CCCCCCO[Si](C)(C)OC(CC(C)(C)C(=O)OCCCCCCCC/C=C\CCCCCCCC)OCCCCCCCC/C=C\CCCCCCCC (stereo not drawn) , the value recorded as its Viability (%) at different lipid concentrations, mean is 96.50%

So for CCCCCCCC/C=C\CCCCCCCCOC(CCCCCCCCCCCCCCC)O[Si](C)(C)OCCCCCCN(CCO)CCO (stereo not drawn) , the logged Viability (%) at different lipid concentrations, mean turned out to be 111.2%

Entry CCCCC/C=C\C/C=C\CCCCCCCC(OCCCCCCCC/C=C\CCCCCCCC)O[Si](C)(C)OCCCCCCN(CCO)CCO (stereo not drawn) , Viability (%) at different lipid concentrations, mean reported as 106.0%

Quick note, Viability (%) at different lipid concentrations, mean for CCCCCCCC/C=C\CCCCCCCCOC(CCCCCCC/C=C\CCCCCCCC)O[Si](C)(C)OCCCCCCN(C)[C@H](CO)Cc1ccccc1 (stereo partly drawn) landed at 102.9%

Item: CCCCC/C=C\C/C=C\CCCCCCCCOC(CC[C@@H](C)C1CCC2C3CCC4C[C@H](OC)CC[C@]4(C)C3CC[C@@]21C)O[Si](C)(C)OCCCCCCN(CCO)CCO (stereo partly drawn) | Viability (%) at different lipid concentrations, mean: 120.8%

get_value(item= CCCCCCCC/C=C\CCCCCCCC(OCCCCCCCCCCCC1CCCCC1)O[Si](C)(C)OCCCCCCN(CCO)CCO (stereo not drawn) , readout=Viability (%) at different lipid concentrations, mean) returns 112.5%

Lookup result for CCCCC/C=C\C/C=C\CCCCCCCCOC(CCCCCCC/C=C\C/C=C\CCCCC)O[Si](C)(C)OCCCCCCN1CCOCC1 (stereo not drawn) ; measured Viability (%) at different lipid concentrations, mean: 90.9%

# Viability (%) at different lipid concentrations, mean (compound: CCCCC/C=C\C/C=C\CCCCCCCCOC(CCCCCCC/C=C\C/C=C\CCCCC)O[Si](C)(C)OCCCCCCN(CCCCO)CCCCO (stereo not drawn) ) is 116.9%

// Viability (%) at different lipid concentrations, mean lookup, compound = CCCCC/C=C\C/C=C\CCCCCCCCOC(CCCCCCC/C=C\C/C=C\CCCCC)O[Si](C)(C)OCCCCCCN(C)CCCCO (stereo not drawn) , result: 107.2%
